# measured-on: BACE Enzyme (Homo sapiens, UniProt P56817)
# Sequence (P56817 46-501, species assumed): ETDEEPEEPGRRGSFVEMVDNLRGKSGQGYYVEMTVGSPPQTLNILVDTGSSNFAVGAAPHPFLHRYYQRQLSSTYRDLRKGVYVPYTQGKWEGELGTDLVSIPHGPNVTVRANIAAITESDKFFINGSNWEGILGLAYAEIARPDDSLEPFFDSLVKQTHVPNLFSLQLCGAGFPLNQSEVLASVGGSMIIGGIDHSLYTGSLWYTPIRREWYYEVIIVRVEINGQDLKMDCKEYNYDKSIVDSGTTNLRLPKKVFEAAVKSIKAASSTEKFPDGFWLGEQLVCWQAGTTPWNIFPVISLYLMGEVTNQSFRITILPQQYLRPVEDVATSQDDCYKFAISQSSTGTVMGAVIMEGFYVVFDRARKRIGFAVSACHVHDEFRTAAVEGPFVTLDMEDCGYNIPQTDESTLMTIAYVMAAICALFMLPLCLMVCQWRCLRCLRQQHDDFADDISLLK
# experiment-notes: BACE Enzyme Potency (Table 12)
# Type: biochemical
# settings: Table 12; class symbols; read-out: BACE Enzyme Potency
Collected IC50 values appear next to each entry.

[[record]]
compound = "CN1CCN(c2ccc(-c3csc(Nc4cccc5cccnc45)n3)cc2)CC1 [Compound 360]"
value_reported = "< 200 nM"

[[record]]
compound = "CSc1cccc(Nc2nc(-c3ccc(N4CCN(C)CC4)cc3)cs2)c1 [Compound 372]"
value_reported = "200 to 1000 nM"

[[record]]
compound = "CCc1ccc(Nc2nc(-c3ccc(N4CCCC4)cc3)cs2)cc1 [Compound 363]"
value_reported = "200 to 1000 nM"

[[record]]
compound = "CSc1cccc(Nc2nc(-c3ccc(N4CCCC4)cc3)cs2)c1 [Compound 379]"
value_reported = "200 to 1000 nM"

[[record]]
compound = "CCN(CC)c1ccc(Nc2nc(-c3ccc(-n4cnc(C)c4)cc3)cs2)c(C)c1 [Compound 380]"
value_reported = "1100 to 5000 nM"


Qu. Given the compound COc1ccc(-c2csc(Nc3ccc(OC)c(OC)c3)n2)c(OC)c1 [Compound 353] , what is its reported IC50?
Ans. 200 to 1000 nM

Qu. Try the compound c1cn(-c2ccc(-c3csc(Nc4ccc5[nH]ccc5c4)n3)cc2)cn1 [Compound 370]
Ans. 200 to 1000 nM

Qu. Param item: COc1cccc(CNc2nc(-c3ccc(N4CCN(C)CC4)cc3)cs2)c1 [Compound 365]
Ans. 5100 to 10000 nM

Qu. Record: CSc1cccc(Nc2nc(-c3ccc(-n4ccnc4)cc3)cs2)c1 [Compound 371]
Ans. 200 to 1000 nM

* * *

# measured-on: UniProtKB P56817
# experiment-notes: BACE Enzyme Potency (Table 12)
# Type: biochemical
# settings: Table 12; class symbols; read-out: BACE Enzyme Potency
assay-endpoint: IC50

Qu. So what does the record say about IC50 for CN1CCN(c2ccc(-c3csc(Nc4ccc5c(c4)OCCO5)n3)cc2)CC1 ?
Ans. < 200 nM

Qu. Next entry: CN1CCN(c2ccc(-c3csc(Nc4ccc(Cl)c(Cl)c4)n3)cc2)CC1
Ans. < 200 nM

Qu. Check Brc1ccc(Nc2nc(-c3ccc(N4CCCC4)cc3)cs2)cc1 too.
Ans. 200 to 1000 nM

Qu. Subsequent entry: CN1CCN(c2ccc(-c3csc(Nc4ccc5c(c4)OCO5)n3)cc2)CC1
Ans. 200 to 1000 nM

Qu. Record: COc1ccc(-c2csc(Nc3ccc(Br)cc3)n2)c(OC)c1
Ans. 200 to 1000 nM

* * *

# measured-on: BACE Enzyme (Homo sapiens, UniProt P56817)
# experiment-notes: BACE Enzyme Potency (Table 12)
# Assay type: biochemical
# settings: Table 12; class symbols; read-out: BACE Enzyme Potency
assay-endpoint: IC50

The examples below pair each entry with its known result.
[[record]]
structure_smiles = "CCOC(=O)c1ccc(Nc2nc(-c3ccc(N4CCN(C)CC4)cc3)cs2)cc1"
value_reported = "0.2 to 1 µM"

[[record]]
structure_smiles = "CCN1CCN(c2ccc(-c3csc(Nc4ccc5c(c4)OCO5)n3)cc2)CC1"
value_reported = "1.1 to 5 µM"

[[record]]
structure_smiles = "CN1CCN(c2ccc(-c3csc(Nc4cccc(Cl)c4)n3)cc2)CC1"
value_reported = "0.2 to 1 µM"

[[record]]
structure_smiles = "COc1ccc(-c2csc(Nc3ccc4[nH]cnc4c3)n2)c(OC)c1"
value_reported = "0.2 to 1 µM"

[[record]]
structure_smiles = "CC(C)N(c1ccccc1)c1ccc(Nc2nc(-c3ccc(-n4ccnc4)cc3)cs2)cc1"
value_reported = "0.2 to 1 µM"


Qu. Could you share what IC50 was measured for CN1CCN(c2ccc(-c3csc(Nc4ccc(Cl)cc4)n3)cc2)CC1 , tested on BACE Enzyme (Homo sapiens, UniProt P56817)?
Ans. 0.2 to 1 µM

Qu. Follow-up item: CN1CCN(c2ccc(-c3csc(Nc4ccc5ccccc5c4)n3)cc2)CC1
Ans. 0.2 to 1 µM

Qu. Another: COc1cc(Nc2nc(-c3ccc(F)cc3)cs2)cc(OC)c1OC
Ans. 0.2 to 1 µM

Qu. Next molecule up: CCN(c1ccc(N2CCOCC2)cc1)c1nc(-c2ccc(-n3ccnc3)cc2)cs1
Ans. 5.1 to 10 µM
